The reported numbers originate from PubChem BioAssay (NCI).

system: 786-0 renal; test: NCI tumour cell line growth inhibition, 48 h
observable: TGI

[[record]]
compound = "COc1ccc(-n2nc(C)c3c(Nc4ccc(NC(=O)Nc5cccc(C(F)(F)F)c5)cc4)ncnc32)cc1"
observable = "TGI"
result = "3.03 µM"

[[record]]
compound = "CC(=O)C1=C(C)N(c2ccccc2)C2(O)C3=C(C(=O)c4ccccc4C3=O)C(O)=CC12Cl (stereo unspecified)"
observable = "TGI"
result = "> 100 µM"

[[record]]
compound = "CC1OC(NCCNCCNC2OC(C)C(O)C(O)C2O)C(O)C(O)C1O (stereo unspecified)"
observable = "TGI"
result = "> 100 µM"

[[record]]
compound = "CN1C/C(=C\\c2cccs2)C2=NN(c3ccccc3)C(c3cccs3)C2C1 (stereo unspecified)"
observable = "TGI"
result = "> 44.7 µM"

[[record]]
compound = "N[C@H]1CCC[C@@H](O)C1O (stereo partly specified)"
observable = "TGI"
result = "> 100 µM"

[[record]]
compound = "CC1=C[P+](c2ccccc2)(c2ccccc2)c2ccccc2O1"
observable = "TGI"
result = "> 100 µM"

[[record]]
compound = "O=NNc1ccc(-c2ccccc2)cn1"
observable = "TGI"
result = "> 39.2 µM"

[[record]]
compound = "O=C1c2ccccc2C(=O)N1c1ccc(Cc2ccc(N3C(=O)c4ccccc4C3=O)cc2)cc1"
observable = "TGI"
result = "> 100 µM"

[[record]]
compound = "CCCCn1c(=O)[nH]c2c(N)ncnc21"
observable = "TGI"
result = "> 100 µM"

[[record]]
compound = "ClCCCN1CCN(CCCl)CC1"
observable = "TGI"
result = "427 µM"

[[record]]
compound = "O=C(Cn1c2ccc(Br)cc2c2nc3ccccc3nc21)NCc1ccccc1"
observable = "TGI"
result = "39 µM"

[[record]]
compound = "O=C1/C(=C/c2cccc([N+](=O)[O-])c2)N=C(c2ccccc2)N1c1nc2ccc(Sc3ccccc3)cc2[nH]1"
observable = "TGI"
result = "> 100 µM"

[[record]]
compound = "COc1c(C(=O)/C(=N/Nc2ccc(C(=O)O)cc2)C(C)=O)c(O)cc2occc12"
observable = "TGI"
result = "> 100 µM"

[[record]]
compound = "COc1cc(/C=C2\\C(=O)N(c3cccc(NC(C)=O)c3)C(c3ccccc3)S2(=O)=O)cc(OC)c1OC (stereo unspecified)"
observable = "TGI"
result = "> 100 µM"

[[record]]
compound = "Cc1cc(NC(=O)NCCOc2ccc(N3C(N)=NC(N)=NC3(C)C)cc2Cl)ccc1S(=O)(=O)F"
observable = "TGI"
result = "> 100 µM"

[[record]]
compound = "CCOP(=O)(OCC)C(c1ccc(F)cc1)N(C(=O)NC(F)(F)F)c1ccc(F)cc1 (stereo unspecified)"
observable = "TGI"
result = "> 100 µM"

[[record]]
compound = "O=C1C=C(NCCc2ccc(O)c([N+](=O)[O-])c2)C(=O)c2[nH]cnc21"
observable = "TGI"
result = "> 100 µM"

[[record]]
compound = "O=C(N/N=C\\c1ccc(Cl)cc1)Nc1ccc2ccccc2c1"
observable = "TGI"
result = "38.4 µM"

[[record]]
compound = "CCOC(=O)NC(Nc1ccc(F)cc1F)(C(F)(F)F)C(F)(F)F"
observable = "TGI"
result = "> 100 µM"

[[record]]
compound = "Cc1cccc(NC(=O)c2c(N)[n+]([O-])c3ccccc3[n+]2[O-])c1"
observable = "TGI"
result = "17.9 µM"

[[record]]
compound = "O=C(CC1(O)C(=O)Nc2ccccc21)c1ccc(Cl)c(Cl)c1 (stereo unspecified)"
observable = "TGI"
result = "> 100 µM"

